biological target: IL-17A/F (Homo sapiens, UniProt Q16552+Q96PD4); assay: IL-17A/F HEK-Blue cell assay (SEAP reporter); conditions: HEK-Blue IL-17A reporter cells, IL17A/F 5 ng/mL, 20 hours, SEAP read at A630; read-out: HEK-Blue IL17AF (IC50 for IL-17A/F inhibition)
Sequence (Q16552 24-155): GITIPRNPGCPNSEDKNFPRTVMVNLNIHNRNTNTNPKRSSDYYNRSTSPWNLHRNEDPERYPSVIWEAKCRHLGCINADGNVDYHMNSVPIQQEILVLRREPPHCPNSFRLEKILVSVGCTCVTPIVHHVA
Sequence (Q96PD4 31-163): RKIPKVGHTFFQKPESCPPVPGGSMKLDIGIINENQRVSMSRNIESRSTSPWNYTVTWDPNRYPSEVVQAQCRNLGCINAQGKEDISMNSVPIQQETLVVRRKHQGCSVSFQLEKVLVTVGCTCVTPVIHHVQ
pIC50: −log10 of the molar value.
pIC50 listing for selected compounds.

compound	pIC50
CCn1nccc1C(=O)N[C@H](c1cn2nc(CC3C[C@@H](C(F)(F)F)CNC3=O)c(N3C[C@H]4CC[C@@H](C3)O4)nc2n1)C1CCC(F)(F)CC1 (single isomer, unassigned) [Compound 84]	6.00 to 7.00
CCn1nccc1C(=O)N[C@H](c1cn2nc(C[C@H]3C[C@@H](C(F)(F)F)CNC3=O)c(C3CCOC3)nc2n1)[C@H]1CCCC(F)(F)C1 (single isomer, unassigned) [Compound 204]	6.00 to 7.00
CCn1nccc1C(=O)N[C@H](c1cn2nc(CC3C[C@@H](C(F)(F)F)CNC3=O)c(N3C[C@H]4C[C@@H]3CO4)nc2n1)C1CCC(F)(F)CC1 (single isomer, unassigned) [Compound 85]	< 6.00
CCn1nccc1C(=O)N[C@H](c1cn2nc(C[C@H]3C[C@@H](C(F)(F)F)CNC3=O)c(C3CCOC4(C3)CN(C)C4)nc2n1)C1CCC(F)(F)CC1 (stereo partly drawn)	< 6.00
O=C(N[C@H](c1cn2nc(CC3C[C@@H](C(F)(F)F)CNC3=O)cnc2n1)C1CCC(F)(F)CC1)c1conc1C1CC1 (stereo partly drawn)	< 6.00

Proceeding to the next compound to report its pIC50.
query: If you can, please state the reported pIC50 value of O=C(N[C@H](c1cn2nc(C[C@H]3C[C@@H](C(F)(F)F)CNC3=O)c(C3CCOCC3)nc2n1)C1CCC(F)(F)CC1)c1nonc1CN1CC(F)C1 .
result: 6.00 to 7.00
